Biological target: human CB1 receptor (Homo sapiens, UniProt P21554)
Sequence (P21554 whole entry): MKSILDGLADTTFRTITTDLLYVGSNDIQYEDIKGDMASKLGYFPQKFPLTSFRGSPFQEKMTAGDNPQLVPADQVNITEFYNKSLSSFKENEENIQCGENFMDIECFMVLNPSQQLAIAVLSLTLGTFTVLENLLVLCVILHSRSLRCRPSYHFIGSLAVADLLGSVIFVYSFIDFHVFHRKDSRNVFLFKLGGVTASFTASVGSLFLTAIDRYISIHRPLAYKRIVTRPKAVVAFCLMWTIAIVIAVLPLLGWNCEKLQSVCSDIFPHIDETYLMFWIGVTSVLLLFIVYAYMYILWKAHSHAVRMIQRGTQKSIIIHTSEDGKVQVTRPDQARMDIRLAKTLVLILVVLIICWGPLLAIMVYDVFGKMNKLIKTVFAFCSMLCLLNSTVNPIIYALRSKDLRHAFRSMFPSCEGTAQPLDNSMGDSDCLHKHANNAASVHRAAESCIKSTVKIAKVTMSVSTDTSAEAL
Assay: Human CB1 receptor binding, [3H] CP-55,940 displacement on HEK cell membranes
Set-up: expressed in transfected cells; host or cells: HEK cells, doxycycline-induced; membrane preparation
Conditions: read-out: CB1 Ki
Reported log10 Ki by item:
Parameter value (number): base-10 log of Ki in nM.

Worked set:
| molecule | log10 Ki |
| --- | --- |
| CC(C)(C)[C@H](NC(=O)c1nn(Cc2ccc(F)cc2)c2ccccc12)C(=O)NCC(=O)NCC(=O)O [Example 495] | 2.11 |
| CC(C)(C)C(NC(=O)c1nn(Cc2ccc(F)cc2)c2ccccc12)C(=O)NCCN1CCOCC1 (stereo not shown) [Example 141] | 0.97 |
| CC(C)(C)[C@H](NC(=O)c1nn(Cc2ccc(C#N)cc2F)c2ccccc12)C(=O)NCCNS(=O)(=O)c1ccc(C#N)cc1 [Example 265] | 1.12 |
| CC(C)(C)C(NC(=O)c1nn(Cc2ccccc2C(N)=O)c2ccccc12)C(N)=O (stereo not shown) [Example 34] | 2.19 |
| CC(C)(C)[C@H](NC(=O)c1nn(Cc2ccc(F)cc2)c2ccccc12)C(=O)NCc1cnn2cccnc12 [Example 417] | 0.89 |

*Q* I am curious: what log10 Ki value has been reported for CC(C)(C)[C@H](NC(=O)c1nn(Cc2ccc(C#N)cc2)c2ccccc12)C(=O)NCCNS(=O)(=O)C1CC1 [Example 97] ?
*A* 0.02

*Q* Param item: CCOC(=O)[C@H]1C[C@@H](NC(=O)[C@@H](NC(=O)c2nn(Cc3ccc(F)cc3)c3ccccc23)C(C)(C)C)C1 [Example 381]
*A* 1.18
